Each entry below carries its reported EC50.
Target: IRE1a (Homo sapiens, UniProt O75460)
Sequence (O75460 19-977): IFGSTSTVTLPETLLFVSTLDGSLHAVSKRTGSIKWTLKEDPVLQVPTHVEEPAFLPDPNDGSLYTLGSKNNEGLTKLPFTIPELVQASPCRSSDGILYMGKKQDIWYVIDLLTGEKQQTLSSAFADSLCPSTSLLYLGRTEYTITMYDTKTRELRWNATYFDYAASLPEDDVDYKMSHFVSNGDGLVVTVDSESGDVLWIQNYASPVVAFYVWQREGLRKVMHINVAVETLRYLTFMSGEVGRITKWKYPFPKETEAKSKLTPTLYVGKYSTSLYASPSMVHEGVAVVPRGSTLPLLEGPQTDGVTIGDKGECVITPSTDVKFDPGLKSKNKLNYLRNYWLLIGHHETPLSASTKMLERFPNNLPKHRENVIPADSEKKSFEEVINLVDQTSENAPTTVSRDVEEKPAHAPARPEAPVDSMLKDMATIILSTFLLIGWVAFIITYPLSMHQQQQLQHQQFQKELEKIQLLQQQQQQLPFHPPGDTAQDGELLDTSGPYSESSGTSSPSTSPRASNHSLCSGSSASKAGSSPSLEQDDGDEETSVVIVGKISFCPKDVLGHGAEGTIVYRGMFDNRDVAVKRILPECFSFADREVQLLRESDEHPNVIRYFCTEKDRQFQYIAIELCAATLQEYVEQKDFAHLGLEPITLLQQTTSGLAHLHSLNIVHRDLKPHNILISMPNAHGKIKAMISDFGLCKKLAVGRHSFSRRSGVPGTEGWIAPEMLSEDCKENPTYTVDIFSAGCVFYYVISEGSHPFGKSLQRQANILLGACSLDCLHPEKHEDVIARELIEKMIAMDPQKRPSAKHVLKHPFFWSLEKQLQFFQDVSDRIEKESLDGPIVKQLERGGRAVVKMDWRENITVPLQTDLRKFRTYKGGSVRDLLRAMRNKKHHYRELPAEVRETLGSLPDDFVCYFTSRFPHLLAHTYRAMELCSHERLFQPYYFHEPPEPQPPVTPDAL
Assay: IRE1a Endoribonuclease Nanoluciferase Assay (XBP1 luciferase reporter in 293T cells)
Conditions: 293T cells transfected with XBP1 luciferase reporter, ER stressors +/- inhibitors

- smilesRepr: "CCc1cc(-c2ccc(NS(=O)(=O)c3ccccc3C)nc2C)cc2cnc(N[C@H]3CC[C@H](N)CC3)nc12"
  EC50: "0.005 to 0.05 µM"
- smilesRepr: "CCc1cc(-c2ccc(NS(=O)(=O)c3ccccc3Cl)c(F)c2)cc2cnc(N[C@@H]3CC[C@@H](N)[C@H](C)C3)nc12"
  EC50: "≤ 0.005 µM"

-- ask Request: EC50, test system IRE1a (Homo sapiens, UniProt O75460), entry COc1nc(NS(=O)(=O)c2ccccc2C#N)ccc1-c1cc2cnc(N[C@H]3CC[C@H](N)CC3)nc2cc1C
-- reply 0.05 to 0.1 µM

---

Notes on IC50 obtained with IRE1a (Homo sapiens, UniProt O75460).

Below, 4 compounds whose answers are already recorded.
- compound: "CCc1cc(-c2ccc(NS(=O)(=O)c3ccccc3Cl)c(F)c2)cc2cnc(N[C@@H]3CC[C@H](N)C3)nc12 [79; Formic Acid]"
  IC50: "≤ 5 nM"
- compound: "CCc1cc(-c2ccc(NS(=O)(=O)c3ccccc3Cl)nc2OC)cc2cnc(NC3CCC(C)(N(C)C)CC3)nc12 (stereo not shown) [143; Formic Acid]"
  IC50: "5 to 50 nM"
- compound: "CCc1cc(-c2ccc(NS(=O)(=O)c3ccccc3Cl)cc2C)cc2cnc(N[C@H]3CC[C@H](N)CC3)nc12.O=CO [3; Formic Acid]"
  IC50: "≤ 5 nM"
- compound: "CCCc1cc(-c2cc(NS(=O)(=O)c3ccccc3Cl)nn2C)cc2cnc(N[C@H]3CC[C@H](N)CC3)nc12 [47; Formic Acid]"
  IC50: "≤ 5 nM"

-- ask Query: IC50; subject: CCc1cc(-c2ccc(NS(=O)(=O)c3ccccc3Cl)c(F)c2)cc2cnc(N[C@H]3CC[C@H](NC(C)=O)CC3)nc12 [59; Formic Acid]
-- reply 5 to 50 nM

-- ask Query: IC50; subject: CCc1cc(-c2cc(OC)c(NS(=O)(=O)c3ccccc3Cl)nn2)cc2cnc(N[C@H]3CC[C@H](N)CC3)nc12 [66; Formic Acid]
-- reply ≤ 5 nM

-- ask Query: IC50; subject: N[C@H]1CC2C[C@@H](Nc3ncc4cc(-c5ccc(NS(=O)(=O)c6ccccc6Cl)c(F)c5)ccc4n3)CC2C1 (stereo partly shown) [85; Formic Acid]
-- reply ≤ 5 nM

-- ask Query: IC50; subject: Cc1cc2nc(N[C@H]3CC[C@H](N)CC3)ncc2cc1-c1ccc(NS(=O)(=O)c2ccccc2Cl)c(F)c1 [90; Formic Acid]
-- reply ≤ 5 nM

-- ask Query: IC50; subject: CCc1nc(NS(=O)(=O)c2ccccc2Cl)ccc1-c1cc2cnc(N[C@H]3CC[C@H](N)CC3)nc2cc1C [105; Formic Acid]
-- reply ≤ 5 nM

-- ask Query: IC50; subject: COc1nc(NS(=O)(=O)c2ccccc2Cl)ccc1-c1cc(C(C)(F)F)c2nc(N[C@H]3CC[C@H](N)CC3)ncc2c1 [123; Formic Acid]
-- reply ≤ 5 nM

-- ask Query: IC50; subject: CCc1cc(-c2cc(F)c(NS(=O)(=O)c3ccccc3Cl)cc2OC)cc2cnc(N[C@H]3CC[C@H](N)CC3)nc12 [42; Formic Acid]
-- reply ≤ 5 nM

-- ask Query: IC50; subject: CCc1cc(-c2cnc(NS(=O)(=O)c3ccccc3Cl)nc2C)cc2cnc(N[C@H]3CC[C@H](N)CC3)nc12.O=CO [23; Formic Acid]
-- reply ≤ 5 nM

-- ask Query: IC50; subject: CCc1cc(-c2sc(NS(=O)(=O)c3ccccc3Cl)nc2C)cc2cnc(N[C@H]3CC[C@H](N)CC3)nc12 [38; Formic Acid]
-- reply ≤ 5 nM
